- Target or test system: T1, human CD1a expressed on cells (human, UniProt P06126 17-327; P61769 21-119)
- T1 construct: also called HEK - CD1a; C1R - CD1a
- Experiment description: flow cytometry, MOLT4 cells, 0.0316 µg/ml antibody
Quantity kind: Fluorescence Intensity Geomean (normalized to background)

111 (VR12113) (antibody, V domains shown, also called OX111) VH: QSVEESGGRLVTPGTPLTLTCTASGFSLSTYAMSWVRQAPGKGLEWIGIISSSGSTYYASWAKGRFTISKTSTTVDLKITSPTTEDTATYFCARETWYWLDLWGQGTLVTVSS VL: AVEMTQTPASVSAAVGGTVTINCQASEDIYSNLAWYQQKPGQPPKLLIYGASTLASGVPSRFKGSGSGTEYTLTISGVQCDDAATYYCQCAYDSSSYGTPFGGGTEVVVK ... 12.4 fold over background
110 (VR12112) (antibody, V domains shown, also called OX110; antibody 110) VH: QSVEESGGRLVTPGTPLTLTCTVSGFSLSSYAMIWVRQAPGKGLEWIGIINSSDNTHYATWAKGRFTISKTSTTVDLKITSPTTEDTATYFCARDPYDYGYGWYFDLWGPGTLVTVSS VL: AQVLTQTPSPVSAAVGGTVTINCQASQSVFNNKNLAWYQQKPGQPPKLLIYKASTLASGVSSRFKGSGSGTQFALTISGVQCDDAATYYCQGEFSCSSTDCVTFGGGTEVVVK ... 1.6 fold over background
116 (VR12117) (antibody, V domains shown, also called OX116) VH: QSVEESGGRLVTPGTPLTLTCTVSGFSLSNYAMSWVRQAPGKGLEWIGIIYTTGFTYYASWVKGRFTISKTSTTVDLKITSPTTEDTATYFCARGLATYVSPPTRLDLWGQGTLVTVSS VL: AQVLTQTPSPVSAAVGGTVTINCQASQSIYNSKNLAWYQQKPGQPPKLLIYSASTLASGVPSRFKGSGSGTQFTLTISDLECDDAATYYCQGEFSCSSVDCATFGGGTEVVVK ... 14.9 fold over background

Now examine the next entry.
Fluorescence Intensity Geomean (normalized to background) in this record for 77A (VR11851) (antibody, V domains shown, also called OX77a; antibody 77a) VH: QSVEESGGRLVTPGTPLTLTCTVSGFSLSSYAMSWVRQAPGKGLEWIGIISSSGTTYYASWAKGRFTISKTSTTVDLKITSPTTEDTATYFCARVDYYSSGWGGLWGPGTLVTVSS VL: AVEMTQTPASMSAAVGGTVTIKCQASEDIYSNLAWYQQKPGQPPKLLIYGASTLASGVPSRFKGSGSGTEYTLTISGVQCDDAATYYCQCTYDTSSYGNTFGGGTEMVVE : 8.7 fold over background

Just for reference, patent US20250289893A1 is where these values come from.
